All values here come from patent US12673961B2.

# Study system: human PAH with the R408W mutation (Homo sapiens, UniProt P00439, R408W)
# Construct: expressed in transfected cells
# Experiment notes: Cell Based Phenylalanine Flux Assay
# Particulars: A375 cells expressing human R408W PAH; 24 hrs with compound, then sepiapterin and 13C9,15N-Phenylalanine for 4 hours; 13C-Tyrosine by LC-MS; average where tested multiple times; read-out: AC50
Catalogue of AC50 readings, one per entry.

COc1ccc(-c2nnc(C(=O)N3CCc4[nH]cnc4[C@H]3c3cc4c(C(F)F)cccn4n3)o2)nc1 :: < 0.5 µM
O=C([C@@H]1CC1(F)F)N1CCc2[nH]cnc2[C@H]1c1cc2c(F)cccn2n1 :: < 0.5 µM
O=C(c1cnn2cc(C3CC3)ccc12)N1CCc2[nH]cnc2[C@@H]1c1cc2c(C(F)(F)F)cccn2n1 :: > 5 µM
Cc1cccn2nc([C@@H]3c4nc[nH]c4CCN3c3nnc(-c4cccnc4F)o3)cc12 :: 0.5 to 1 µM

Indicate the recorded AC50 value for this compound: CC(C)c1nnc(N2CCc3[nH]cnc3[C@H]2c2cc3c(C(F)F)cccn3n2)o1
< 0.5 µM

Indicate the recorded AC50 value for this compound: Cn1cc(-c2nc(C3CC3)c(C(=O)N3CCc4[nH]cnc4[C@@H]3c3cc4c(C(F)(F)F)cccn4n3)o2)cn1
1 to 5 µM

Indicate the recorded AC50 value for this compound: Fc1cccn2nc([C@@H]3c4nc[nH]c4CCN3c3nnc(-c4ccncn4)o3)cc12
0.5 to 1 µM

Indicate the recorded AC50 value for this compound: Cc1cccnc1-c1nnc(N2CCc3[nH]cnc3[C@H]2c2cc3c(C(F)F)cccn3n2)o1
< 0.5 µM

###

Catalogue of AC50 readings, one per entry.
# Study system: human PAH with the R408W mutation (Homo sapiens, UniProt P00439, R408W)
# Construct: expressed in transfected cells
# Experiment notes: Cell Based Phenylalanine Flux Assay
# Particulars: A375 cells expressing R408W PAH; 24 hrs with compound, then 20 μM sepiapterin and 800 μM 13C9,15N-Phenylalanine for 4 hours; 13C-Tyrosine in media by LC-MS; average where tested multiple times; read-out: AC50

Worked set:
Cc1nnc(N2CCc3[nH]cnc3[C@H]2c2cc3cccc(C(F)F)n3n2)o1 (single isomer, unassigned) :: > 5 µM
O=C(c1nnc(C2CC(F)(F)C2)o1)N1CCc2[nH]cnc2[C@H]1c1cc2ccccn2n1 (single isomer, unassigned) :: 1 to 5 µM
CN(C)c1nnc(C(=O)N2CCc3[nH]cnc3[C@H]2c2cc3ccccn3n2)o1 (single isomer, unassigned) :: 1 to 5 µM
Fc1ccc(-c2nnc(N3CCc4[nH]cnc4C3c3cc4ccccn4n3)o2)nc1 (centres unmarked) :: > 5 µM
COc1cccn2nc(C3c4nc[nH]c4CCN3C(=O)c3cc(C(C)(C)C)nn3C)cc12 (centres unmarked) :: > 5 µM

Recall the reported AC50 of CC(C)c1cccn2nc([C@@H]3c4nc[nH]c4CCN3c3nnc(-c4ncccn4)o3)cc12 (single isomer, unassigned) when tested on human PAH with the R408W mutation (Homo sapiens, UniProt P00439, R408W).
1 to 5 µM

Recall the reported AC50 of Cn1cc(N2CCc3[nH]cnc3C2c2cc3ccccn3n2)cn1 (centres unmarked) when tested on human PAH with the R408W mutation (Homo sapiens, UniProt P00439, R408W).
> 5 µM

Recall the reported AC50 of Cn1cncc1-c1nnc(C(=O)N2CCc3[nH]cnc3C2c2cc3c(C(F)(F)F)cccn3n2)o1 (single isomer, unassigned) [4S enantiomer of 2-(1-methyl-1H-imidazol-5-yl)-5-14-[4-(trif] when tested on human PAH with the R408W mutation (Homo sapiens, UniProt P00439, R408W).
1 to 5 µM

###

# Study system: human PAH with the R408W mutation (Homo sapiens, UniProt P00439, R408W)
# Construct: expressed in transfected cells
# Sequence (P00439 1-452 R408W): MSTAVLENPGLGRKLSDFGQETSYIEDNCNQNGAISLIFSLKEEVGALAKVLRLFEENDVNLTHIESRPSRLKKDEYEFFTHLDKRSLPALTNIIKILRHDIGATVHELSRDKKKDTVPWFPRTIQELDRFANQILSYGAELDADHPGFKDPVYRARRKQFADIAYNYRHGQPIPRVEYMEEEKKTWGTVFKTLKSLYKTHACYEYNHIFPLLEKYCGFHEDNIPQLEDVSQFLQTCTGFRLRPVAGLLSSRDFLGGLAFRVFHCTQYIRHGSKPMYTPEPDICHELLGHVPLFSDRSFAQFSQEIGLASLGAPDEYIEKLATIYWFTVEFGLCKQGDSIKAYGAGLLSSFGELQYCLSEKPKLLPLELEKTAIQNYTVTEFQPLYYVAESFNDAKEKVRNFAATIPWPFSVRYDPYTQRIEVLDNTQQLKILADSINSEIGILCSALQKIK
# Experiment notes: Cell Based Phenylalanine Flux Assay
# Particulars: A375 cells expressing R408W PAH; 24 hrs with compound, then 20 μM sepiapterin and 800 μM 13C9,15N-Phenylalanine for 4 hours; 13C-Tyrosine in media by LC-MS; average where tested multiple times; read-out: AC50
Quantity kind: AC50

Worked set:
O=C(c1nnc(-c2ncccn2)o1)N1CCc2[nH]cnc2C1c1cc2c(C3CC3)cccn2n1 (centres unmarked) :: > 5 µM
O=C(c1nnc(-c2ncccn2)o1)N1CCc2[nH]cnc2[C@H]1c1cc2c(OC(F)F)cccn2n1 (single isomer, unassigned) :: 1 to 5 µM
Cc1cccn2nc([C@@H]3c4nc[nH]c4CCN3c3cccc(F)n3)cc12 (single isomer, unassigned) :: 1 to 5 µM
Cc1nnc(C(=O)N2CCc3[nH]cnc3C2c2cc3ccc(F)cn3n2)o1 (centres unmarked) :: 1 to 5 µM
O=C(Cc1cnn2ccccc12)N1CCc2[nH]cnc2[C@H]1c1cc2ccccn2n1 (single isomer, unassigned) :: 1 to 5 µM

Indicate the recorded AC50 value for this compound: Fc1cccnc1-c1nnc(N2CCc3[nH]cnc3[C@H]2c2cc3c(C(F)(F)F)cccn3n2)o1 (single isomer, unassigned)
1 to 5 µM

Indicate the recorded AC50 value for this compound: c1ccn2nc(C3c4nc[nH]c4CCN3c3nnc(C4CC4)o3)cc2c1 (centres unmarked)
1 to 5 µM

Indicate the recorded AC50 value for this compound: Cc1nnc(C(=O)N2CCc3[nH]cnc3[C@@H]2c2cc3cccc(C)n3n2)o1 (single isomer, unassigned)
> 5 µM

###

# Study system: human PAH with the R408W mutation (Homo sapiens, UniProt P00439, R408W)
# Construct: expressed in transfected cells
# Experiment notes: Cell Based Phenylalanine Flux Assay
# Particulars: A375 cells expressing R408W PAH; 24 hrs with compound, then 20 μM sepiapterin and 800 μM 13C9,15N-Phenylalanine for 4 hours; 13C-Tyrosine in media by LC-MS; average where tested multiple times; read-out: AC50
Catalogue of AC50 readings, one per entry.

Worked set:
Cn1cncc1-c1nnc(C(=O)N2CCc3[nH]cnc3[C@@H]2c2cc3cccc(C(F)F)n3n2)o1 (single isomer, unassigned) :: > 5 µM
Clc1cccn2nc([C@@H]3c4nc[nH]c4CCN3c3nnc(-c4ncccn4)o3)cc12 (single isomer, unassigned) :: 1 to 5 µM
Cc1nnc(C(=O)N2CCc3[nH]cnc3[C@H]2c2cc3c(OC(F)F)cccn3n2)o1 (single isomer, unassigned) :: 1 to 5 µM

Recall the reported AC50 of Cc1ccn2nc(C3c4nc[nH]c4CCN3C(=O)c3nnc(-c4cnn(C)c4)o3)cc2c1 (single isomer, unassigned) when tested on human PAH with the R408W mutation (Homo sapiens, UniProt P00439, R408W).
> 5 µM

###

# Study system: human PAH with the R408W mutation (Homo sapiens, UniProt P00439, R408W)
# Construct: expressed in transfected cells
# Experiment notes: Cell Based Phenylalanine Flux Assay
# Particulars: A375 cells expressing human R408W PAH; 24 hrs compound incubation; 13C-Tyrosine by LC-MS; average where tested multiple times; read-out: AC50
Catalogue of AC50 readings, one per entry.

Cc1cccn2nc([C@@H]3c4nc[nH]c4CCN3C(=O)c3cc(C(F)F)nn3C)cc12 [Example 867] :: < 500 nM
Cn1cnc(-c2nnc(C(=O)N3CCc4[nH]cnc4C3c3cc4c(C(F)(F)F)cccn4n3)o2)c1 (stereo in doubt) [Example 934] :: 500 to 1000 nM

Indicate the recorded AC50 value for this compound: O=C(c1nnc(-c2cnccn2)o1)N1CCc2[nH]cnc2[C@H]1c1cc2c(F)cccn2n1 [Example 962]
< 500 nM

###

# Study system: human PAH with the R408W mutation (Homo sapiens, UniProt P00439, R408W)
# Construct: expressed in transfected cells
# Experiment notes: Cell Based Phenylalanine Flux Assay;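 note: Ten-point dose curve from 2-fold serial dilutions, run in duplicate at 0.5% DMSO final, tracer step used 20 µM sepiapterin and 800 µM labeled phenylalanine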
# Set-up: scale not given here
# Particulars: A375 cells expressing R408W PAH; 24 hrs with compound, then 20 μM sepiapterin and 800 μM 13C9,15N-Phenylalanine for 4 hours; 13C-Tyrosine in media by LC-MS; average where tested multiple times
Quantity kind: AC50

Cc1cccn2nc(C3c4nc[nH]c4CCN3C(=O)c3ccnn3C(F)(F)F)cc12 (stereo not drawn) :: E, E
COc1cccn2nc(C3c4nc[nH]c4CCN3C(=O)c3ccnn3C3CC3)cc12 (stereo not drawn) :: E, E
CC(C)(O)c1nc(C(F)(F)F)c(C(=O)N2CCc3[nH]cnc3C2c2cc3c(Cl)cccn3n2)o1 (stereo not drawn) :: E, E
